These data points were gathered from patent US20090036475A1.

This section presents molecules with their documented melting point values.

Cc1cc(Nc2ccccc2)nc(-n2nc(C)cc2C)n1 [Compound B2] : 134.5 to 138.8 °C
Cc1cc(C)n(-c2nccc(NC3CCCCC3)n2)n1 [Compound A5] : 144.5 to 146.7 °C
Cc1cc(C)n(-c2ncc(Br)c(Nc3ccc(Cl)cc3)n2)n1 [Compound B10] : 144.5 to 154 °C
Cc1cc(C)n(-c2nccc(Nc3cccc(C(F)(F)F)c3)n2)n1 [Compound B8] : 98.5 to 99.6 °C
Cc1cc(C)n(-c2nccc(Nc3ccc(Cl)cc3)n2)n1 [Compound B9] : 135.5 to 140 °C
Cc1ccc(Nc2cc(C)nc(-n3nc(C)cc3C)n2)cc1 [Compound B1] : 135.1 to 137.5 °C
Cc1cc(Nc2cccc(C(F)(F)F)c2)nc(-n2nc(C)cc2C)n1 [Compound B6] : 130.5 to 133.6 °C

Switching to the query record.
Sure, the documented melting point for Cc1cc(C)n(-c2ncc(Cl)c(NC3CCCCC3)n2)n1 [Compound A6] is 90 to 99 °C

====

Reported property: melting point

Cc1cc(Nc2ccc(Cl)cc2)nc(-n2nc(C)cc2C)n1 [Compound B3] : 181 to 183.2 °C
Cc1cc(C)n(-c2ncc(C)c(Nc3ccc(Cl)cc3)n2)n1 [Compound B12] : 179.2 to 182.3 °C
Cc1ccc(Nc2ccnc(-n3nc(C)cc3C)n2)cc1 [Compound B11] : 52 to 55.6 °C

Sure, the documented melting point for Cc1cc(Nc2ccc(Cl)c(Cl)c2)nc(-n2nc(C)cc2C)n1 [Compound B4] is 135.3 to 137.8 °C

Sure, the documented melting point for Cc1cc(NCc2ccccc2)nc(-n2nc(C)cc2C)n1 [Compound A1] is 135.9 to 137.3 °C
